I'd be grateful if you could share measured Kd for these entries.
biological target: mTOR kinase (mTORC1 and mTORC2 kinase complex) (Homo sapiens); assay: In vitro evaluation of mTOR kinase inhibitory activity (DiscoverX ligand-bead competition binding, qPCR readout)
Numbers only, in nM.

# example entries with known answers
• CNC(=O)c1cccc(-c2ccc3c(N4CCOCC4C)nc(N4CCOC5(CC[S+]([O-])C5)C4)nc3n2)c1 (single isomer, unassigned) [Embodiment 46-2] = 4.9
• CNC(=O)c1cccc(-c2ccc3c(N4C5CCC4COC5)nc(N4CCOC5(CC5)C4)nc3n2)c1 = 0.34

Continue with the compound presented below.
**Q:** GET /values?readout=Kd&system=mTOR kinase (mTORC1 and mTORC2 kinase complex) (Homo sapiens)&item= CNC(=O)c1cccc(-c2ccc3c(N4CCOCC4C)nc(N4CCOC5(CC(OC)C5)C4)nc3n2)c1 (single isomer, unassigned) [Embodiment 34-2]
**A:** 0.73

Where these numbers come from: patent US11377444B2
